system: trypsin; assay: Trypsin digestion followed by HPLC; assay type: in vitro ADME; settings: trypsin (isolated protease), after 30 min, peptide:trypsin 100:1, peptide 1 µg/µL, 50 mM ammonium bicarbonate buffer pH 8.2, 37 °C, reverse-phase HPLC-MS read-out, assays in duplicate, read-out: Decrease in the area of the starting HPLC peak on trypsin treatment
Ends that are not written are not given here.
metric_name: metabolised at 0.5 h, 1 µg/µL (%)
Give bare numbers, in %.

**Q:** Sample MNYMVYFNFFACVLVPLLLMLGVYLYGRKKRRQRRR-NH2 [Peptide 1] — what was its metabolised at 0.5 h, 1 µg/µL?
**A:** 90
